# credit: ChEMBL document CHEMBL4765337

target: Neuronal acetylcholine receptor subunit alpha-7 (Homo sapiens, UniProt P36544); assay: Displacement of [125I] alpha bungarotoxin from human neuronal alpha7 nAChR expressed in human SH-SY5Y cell membrane measured after 120 mins by Topcount scintillation counting method
Sequence (P36544 whole entry): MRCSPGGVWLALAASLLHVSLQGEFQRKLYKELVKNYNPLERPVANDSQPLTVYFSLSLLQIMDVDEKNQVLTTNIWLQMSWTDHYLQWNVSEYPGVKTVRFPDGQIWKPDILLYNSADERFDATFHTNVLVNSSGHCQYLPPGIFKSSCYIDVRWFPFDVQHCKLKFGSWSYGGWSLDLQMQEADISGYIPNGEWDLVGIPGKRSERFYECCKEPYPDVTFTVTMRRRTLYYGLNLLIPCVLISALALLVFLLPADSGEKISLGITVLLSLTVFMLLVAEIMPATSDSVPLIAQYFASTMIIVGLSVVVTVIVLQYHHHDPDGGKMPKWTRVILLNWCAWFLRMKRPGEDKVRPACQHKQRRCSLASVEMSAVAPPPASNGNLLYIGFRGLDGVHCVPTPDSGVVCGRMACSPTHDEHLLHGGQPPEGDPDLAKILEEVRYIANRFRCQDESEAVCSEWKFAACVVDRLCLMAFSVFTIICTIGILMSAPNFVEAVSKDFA
Values of Ki strictly less than 0.9 µM map to T, and values of at least 0.9 µM map to F.

INPUT: # TODO verify Ki < 0.9 µM strictly for this molecule: C[N+]1(Cc2cccc(/N=N/c3cccc(C[N+]4(C)CC=CCC4)c3)c2)CC=CCC1.[I-].[I-] (stereo not drawn)
OUTPUT: T

INPUT: # TODO verify Ki < 0.9 µM strictly for this molecule: "C[N+]1(Cc2cccc(/N=N/c3ccccc3)c2)CCCCC1.[I-]"
OUTPUT: F

INPUT: # TODO verify Ki < 0.9 µM strictly for this molecule: "C[N+]1(Cc2ccc(/N=N/c3ccc(C[N+]4(C)CCCCC4)cc3)cc2)CCCCC1.[I-].[I-]"
OUTPUT: F

INPUT: # TODO verify Ki < 0.9 µM strictly for this molecule: "C[N+]1(Cc2ccc(/N=N/c3ccc(C[N+]4(C)CCCC4)cc3)cc2)CCCC1.[I-].[I-]"
OUTPUT: F

INPUT: # TODO verify Ki < 0.9 µM strictly for this molecule: Clc1ccc([C@H]2C[C@@H]3CC[C@H]2N3)cn1 [(-)-EPIBATIDINE]
OUTPUT: T

INPUT: # TODO verify Ki < 0.9 µM strictly for this molecule: "C[N+]1(Cc2cccc(/N=N/c3cccc(C[N+]4(C)CCCC4)c3)c2)CCCC1.[I-].[I-]"
OUTPUT: F

INPUT: # TODO verify Ki < 0.9 µM strictly for this molecule: "C[N+]1(Cc2cccc(/N=N/c3cccc(C[N+]4(C)CCCCCC4)c3)c2)CCCCCC1.[I-].[I-]"
OUTPUT: F

* * *

Kindly state inhibition for each of the entries shown.
molecular target: Neuronal acetylcholine receptor; alpha4/beta2 (Homo sapiens, UniProt P17787+P43681); assay: Displacement of [125I] alpha bungarotoxin from human neuronal alpha4beta2 nAChR expressed in human SH-SY5Y cell membrane at 10 uM measured after 120 mins by Topcount scintillation counting method; format: cell membranes
Dear colleague, please return just the value in %, with no unit written.

INPUT: Give reported inhibition value for "C[N+]1(Cc2cccc(/N=N/c3ccccc3)c2)CCCCC1.[I-]"
OUTPUT: 39

INPUT: Give reported inhibition value for C[N+]1(Cc2cccc(/N=N/c3cccc(C[N+]4(C)CC=CCC4)c3)c2)CC=CCC1.[I-].[I-] (stereo not given)
OUTPUT: 32

INPUT: Give reported inhibition value for "C[N+]1(Cc2cccc(/N=N/c3cccc(C[N+]4(C)CCCCC4)c3)c2)CCCCC1.[I-].[I-]"
OUTPUT: 7

INPUT: Give reported inhibition value for "C[N+]1(Cc2cccc(/N=N/c3cccc(C[N+]4(C)CCCCCC4)c3)c2)CCCCCC1.[I-].[I-]"
OUTPUT: 29

INPUT: Give reported inhibition value for "C[N+]1(Cc2cccc(/N=N/c3cccc(C[N+]4(C)CCCC4)c3)c2)CCCC1.[I-].[I-]"
OUTPUT: 31

* * *

assay: Thermodynamic solubility of the compound in aqueous phosphate buffer at pH 7.4 measured after 24 hrs by UV-spectra reader analysis; type: physicochemical; conditions: read-out: Therm_solubility
# label = condition met if solubility thermodynamic at 24 h >= 10 mM else condition not met

INPUT: Has "C[N+]1(Cc2ccc(/N=N/c3ccc(C[N+]4(C)CCCC4)cc3)cc2)CCCC1.[I-].[I-]" a recorded solubility thermodynamic at 24 h greater than or equal to 10 mM?
OUTPUT: condition met

INPUT: Has C[N+]1(Cc2cccc(/N=N/c3cccc(C[N+]4(C)CC=CCC4)c3)c2)CC=CCC1.[I-].[I-] (configuration not stated) a recorded solubility thermodynamic at 24 h greater than or equal to 10 mM?
OUTPUT: condition met

INPUT: Has "C[N+]1(Cc2ccc(/N=N/c3ccc(C[N+]4(C)CCCCC4)cc3)cc2)CCCCC1.[I-].[I-]" a recorded solubility thermodynamic at 24 h greater than or equal to 10 mM?
OUTPUT: condition met

INPUT: Has "C[N+]1(Cc2cccc(/N=N/c3ccccc3)c2)CCCCC1.[I-]" a recorded solubility thermodynamic at 24 h greater than or equal to 10 mM?
OUTPUT: condition not met

INPUT: Has "C[N+]1(Cc2cccc(/N=N/c3cccc(C[N+]4(C)CCCC4)c3)c2)CCCC1.[I-].[I-]" a recorded solubility thermodynamic at 24 h greater than or equal to 10 mM?
OUTPUT: condition met

INPUT: Has "C[N+]1(Cc2cccc(/N=N/c3cccc(C[N+]4(C)CCCCC4)c3)c2)CCCCC1.[I-].[I-]" a recorded solubility thermodynamic at 24 h greater than or equal to 10 mM?
OUTPUT: condition met

INPUT: Has "C[N+]1(Cc2cccc(/N=N/c3cccc(C[N+]4(C)CCCCCC4)c3)c2)CCCCCC1.[I-].[I-]" a recorded solubility thermodynamic at 24 h greater than or equal to 10 mM?
OUTPUT: condition not met

* * *

Kindly state Ki for each of the entries shown.
assay: Antagonist activity at rat alpha1beta1gamma1delta1 nAChR expressed in Xenopus laevis oocytes assessed as inhibition of ACh puff-induced maximum channel current amplitude using UV LED light irradiated compound measured at holding potential of -60 mV by two-electrode voltage clamp technique; assay type: cell-based; details: oocyte
Dear colleague, please return just the value in nM, with no unit written.

INPUT: Give reported Ki value for "C[N+]1(Cc2cccc(/N=N\c3cccc(C[N+]4(C)CCCCC4)c3)c2)CCCCC1"
OUTPUT: 2600

INPUT: Give reported Ki value for "C[N+]1(Cc2cccc(/N=N\c3cccc(C[N+]4(C)CCCCCC4)c3)c2)CCCCCC1"
OUTPUT: 2600

INPUT: Give reported Ki value for C[N+]1(Cc2cccc(/N=N\c3cccc(C[N+]4(C)CC=CCC4)c3)c2)CC=CCC1 (stereo not drawn)
OUTPUT: 880
